// data source = patent US20250066422A1

Measured Average exchange yield in %, listed per entry.
target: T1, HLA-A*0201 (human); experiment: UV-ligand exchange, streptavidin/anti-b2m sandwich ELISA
T1 construct: MHC monomer first loaded with a UV-sensitive peptide that is cleaved and exchanged for the test peptide; captured on streptavidin; also called peptide-receptive MHC molecules
RECORDED_METRIC: Average exchange yield in % (%)

BINDER	RESULT
KLAVALLAA (synthetic peptide from IL8) [IL8-001]	41
RVLPPSALQSV (synthetic peptide from AURKB) [AURKB-001]	54
AMLAVLHTV (synthetic peptide from C12orf44) [C12orf44-001]	34
SLWGGDVVL (synthetic peptide from VPS13B) [VPS13B-001]	63
ALASVIKEL (synthetic peptide from IFT81) [IFT81-001]	57
ALWEKNTHL (synthetic peptide from CEP250) [CEP250-002]	70
